Biological target: UniProt P11802
Experiment: CDK4 HTRF
Assay type: biochemical
Settings: Table 2; read-out: CDK4 HTRF/ IC50
# key: entry, value: IC50

Solved cases below.
molecule=Cc1ccccc1CNc1nccc(-c2c[nH]nc2C)n1 experimental_result="< 5000 nM"
molecule=CC(C)c1n[nH]cc1-c1nc(NC2CCN(C)CC2)ncc1Br experimental_result="< 1000 nM"
molecule=Cc1n[nH]cc1-c1ccnc(NC2CCC2)n1 experimental_result="< 1000 nM"
molecule=CC(C)c1n[nH]cc1-c1ccnc(N[C@@H]2CCc3ccccc32)n1 experimental_result="< 50 nM"
molecule=CC(C)CNc1nccc(-c2c[nH]nc2C(C)C)n1 experimental_result="< 100 nM"

[in] Requested field: IC50. Item: Cc1cc(C)cc(CNc2nccc(-c3c[nH]nc3C)n2)c1
[out] < 5000 nM

[in] Requested field: IC50. Item: Cc1n[nH]cc1-c1ccnc(NCc2ccco2)n1
[out] < 10000 nM

[in] Requested field: IC50. Item: CC(C)c1n[nH]cc1-c1ccnc(NCc2ccccc2C(F)(F)F)n1
[out] < 5000 nM

[in] Requested field: IC50. Item: CC(C)c1n[nH]cc1-c1ccnc(NC2Cc3ccccc3C2)n1
[out] < 50 nM

[in] Requested field: IC50. Item: CC(C)c1n[nH]cc1-c1ccnc(NC(C)c2ccccn2)n1 (stereo not shown)
[out] < 500 nM

---

# key: entry, value: pIC50
Target: hCDK1/B (Homo sapiens, UniProt P06493)
Sequence (P06493 whole entry): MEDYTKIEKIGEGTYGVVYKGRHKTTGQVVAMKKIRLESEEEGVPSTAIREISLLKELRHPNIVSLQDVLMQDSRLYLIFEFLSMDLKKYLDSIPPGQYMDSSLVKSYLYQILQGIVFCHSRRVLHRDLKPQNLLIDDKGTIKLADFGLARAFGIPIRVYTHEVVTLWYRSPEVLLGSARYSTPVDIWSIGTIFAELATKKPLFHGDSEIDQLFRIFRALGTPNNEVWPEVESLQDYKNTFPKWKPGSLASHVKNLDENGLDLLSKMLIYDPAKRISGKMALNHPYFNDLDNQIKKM
Sequence (P14635 whole entry partner): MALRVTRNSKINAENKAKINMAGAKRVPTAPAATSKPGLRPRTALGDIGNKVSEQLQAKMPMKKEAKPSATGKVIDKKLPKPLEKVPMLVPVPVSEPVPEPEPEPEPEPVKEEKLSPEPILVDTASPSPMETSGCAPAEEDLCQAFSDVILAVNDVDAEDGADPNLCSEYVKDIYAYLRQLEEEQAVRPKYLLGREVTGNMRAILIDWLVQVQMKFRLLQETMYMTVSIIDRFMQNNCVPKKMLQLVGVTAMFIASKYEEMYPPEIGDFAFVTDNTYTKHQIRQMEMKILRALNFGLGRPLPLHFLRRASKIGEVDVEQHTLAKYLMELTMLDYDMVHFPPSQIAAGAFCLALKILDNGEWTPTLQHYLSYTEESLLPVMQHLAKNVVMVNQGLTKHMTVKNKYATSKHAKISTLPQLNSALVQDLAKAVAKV
Experiment: hCDK1/B
Assay type: biochemical
Settings: Table 1
pIC50: −log10 of the molar value.

compound="CCCNc1cc(-c2cn[nH]c2C(C)C)ccn1 [Example 44]" experimental_result="> 5.30"
compound="CC(C)c1[nH]ncc1-c1ccnc(NCC2CCNCC2)c1 [Example 47]" experimental_result="≤ 4.82"
compound="CCC(CC)c1[nH]ncc1-c1ccnc(NCc2ccccc2C)c1 [Example 71]" experimental_result="> 5.30"

[in] Requested field: pIC50. Item: c1ccc2c(c1)CCC2Nc1cc(-c2cn[nH]c2C2CC2)ccn1 (centres unmarked) [Example 70]
[out] > 5.30

[in] Requested field: pIC50. Item: CC(C)c1[nH]ncc1-c1ccnc(NC(CO)C(C)C)c1 (centres unmarked) [Example 46]
[out] > 5.00

[in] Requested field: pIC50. Item: CC(C)c1[nH]ncc1-c1ccnc(NCCc2cccnc2)c1 [Example 15]
[out] > 5.30

[in] Requested field: pIC50. Item: CC(C)CNc1cc(-c2cn[nH]c2C(C)C)ccn1 [Example 9]
[out] > 6.30

[in] Requested field: pIC50. Item: CCC(CC)c1[nH]ncc1-c1ccnc(NC2CCN(C(=O)OC(C)(C)C)CC2)c1 [Example 72]
[out] > 6.00

[in] Requested field: pIC50. Item: FC(F)(F)c1ccccc1CNc1cc(-c2cn[nH]c2C2CCCC2)ccn1 [Example 63]
[out] > 5.30

[in] Requested field: pIC50. Item: Cc1ccccc1CNc1cc(-c2cn[nH]c2C(C)(C)C)ccn1 [Example 76]
[out] > 4.82

[in] Requested field: pIC50. Item: CC(C)CNc1cc(-c2cn[nH]c2C2CCCC2)ccn1 [Example 56]
[out] > 5.30

[in] Requested field: pIC50. Item: CC(C)c1[nH]ncc1-c1ccnc(NCC2CCCCC2)c1 [Example 6]
[out] > 5.30

[in] Requested field: pIC50. Item: CC(C)c1[nH]ncc1-c1ccnc(NCc2ccc3c(c2)OCO3)c1 [Example 35]
[out] > 5.30

[in] Requested field: pIC50. Item: CC(C)c1[nH]ncc1-c1ccnc(NCc2ccco2)c1 [Example 24]
[out] > 5.30

---

Target: CDK2 cyA (Homo sapiens, UniProt P24941)
Assay: CDK2 cyA IMAP
Type: biochemical
Conditions: Table 2; read-out: CDK2cyA IMAP/ IC50
# key: entry, value: IC50

compound="Cc1n[nH]cc1-c1ccnc(NC2CCCNC2)n1 (stereo not shown)" experimental_result="< 5 µM"
compound=Cc1n[nH]cc1-c1ccnc(NCc2ccccn2)n1 experimental_result="≥ 15 µM"
compound=CC(C)COCCCNc1nccc(-c2c[nH]nc2C(C)C)n1 experimental_result="< 5 µM"

[in] Requested field: IC50. Item: CC(C)c1n[nH]cc1-c1ccnc(NC2CCC(C)(C)c3ccccc32)n1 (stereo not shown)
[out] ≥ 15 µM

[in] Requested field: IC50. Item: Cc1n[nH]cc1-c1ccnc(NCCN2CCOCC2)n1
[out] ≥ 15 µM

[in] Requested field: IC50. Item: CC(C)c1n[nH]c(Br)c1-c1ccnc(NC2CCN(C)CC2)n1
[out] < 5 µM

[in] Requested field: IC50. Item: Cc1n[nH]cc1-c1ccnc(NCCCN2CCCC2)n1
[out] ≥ 15 µM

[in] Requested field: IC50. Item: Cc1n[nH]cc1-c1ccnc(NC2CCN(C)CC2)n1
[out] < 15 µM

[in] Requested field: IC50. Item: Cc1nnc(C(C)Nc2nccc(-c3c[nH]nc3C(C)C)n2)[nH]1 (stereo not shown)
[out] < 15 µM

[in] Requested field: IC50. Item: CCC(Nc1nccc(-c2c[nH]nc2C(C)C)n1)c1ccccc1 (stereo not shown)
[out] < 5 µM

---

# key: entry, value: pIC50
Molecular target: CDK4 (Homo sapiens, UniProt P11802)
Sequence (P11802 whole entry): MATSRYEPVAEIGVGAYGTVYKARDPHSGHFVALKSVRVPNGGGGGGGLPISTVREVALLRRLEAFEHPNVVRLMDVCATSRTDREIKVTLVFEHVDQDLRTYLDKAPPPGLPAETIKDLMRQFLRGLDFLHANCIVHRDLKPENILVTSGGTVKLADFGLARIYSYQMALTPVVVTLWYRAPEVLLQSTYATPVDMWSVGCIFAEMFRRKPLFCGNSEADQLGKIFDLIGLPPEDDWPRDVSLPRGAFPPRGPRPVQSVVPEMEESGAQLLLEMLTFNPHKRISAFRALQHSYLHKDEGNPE
Sequence (P24385 whole entry partner): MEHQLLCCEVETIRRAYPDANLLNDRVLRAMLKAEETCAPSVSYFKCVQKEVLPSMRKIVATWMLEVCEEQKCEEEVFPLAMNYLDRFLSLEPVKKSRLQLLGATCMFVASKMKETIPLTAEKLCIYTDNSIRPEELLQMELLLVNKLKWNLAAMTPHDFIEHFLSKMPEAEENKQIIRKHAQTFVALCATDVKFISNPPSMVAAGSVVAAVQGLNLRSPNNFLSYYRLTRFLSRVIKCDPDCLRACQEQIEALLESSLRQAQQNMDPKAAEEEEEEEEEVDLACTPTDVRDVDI
Assay: CDK4 HTRF
Format: biochemical
Settings: Table 1; read-out: CDK4 HTRF
pIC50: −log10 of the molar value.

Solved cases below.
compound="CCC(CC)c1[nH]ncc1-c1ccnc(NC2CCc3ccccc32)c1 (centres unmarked) [Example 74]" experimental_result="> 5.30"
compound="CC(C)c1[nH]ncc1-c1ccnc(NCCc2ccccc2)c1 [Example 37]" experimental_result="> 6.30"
compound="Cc1cccc(CNc2cc(-c3cn[nH]c3C(C)C)ccn2)c1 [Example 49]" experimental_result="> 5.30"
compound="CC(C)c1[nH]ncc1-c1ccnc(NC2CCN(C)CC2)c1 [Example 78]" experimental_result="> 6.30"
compound="CC(C)c1[nH]ncc1-c1ccnc(NCc2ccc(F)cc2)c1 [Example 30]" experimental_result="> 5.30"

[in] Requested field: pIC50. Item: c1cc(-c2cn[nH]c2C2CCCC2)cc(NCCN2CCCCC2)n1 [Example 61]
[out] > 5.30

[in] Requested field: pIC50. Item: CC(C)c1[nH]ncc1-c1ccnc(NCCCO)c1 [Example 23]
[out] > 5.30

[in] Requested field: pIC50. Item: Cc1ccccc1CNc1cc(-c2cn[nH]c2C(C)C)ccn1 [Example 14]
[out] > 7.00

[in] Requested field: pIC50. Item: CC(C)c1[nH]ncc1-c1ccnc(NC2CC2)c1 [Example 39]
[out] > 6.30

[in] Requested field: pIC50. Item: CN1CCC(Nc2cc(-c3cn[nH]c3C(C)(C)C)ccn2)CC1 [Example 77]
[out] > 4.82

[in] Requested field: pIC50. Item: CCCNc1cc(-c2cn[nH]c2C(C)C)ccn1 [Example 44]
[out] > 6.30

[in] Requested field: pIC50. Item: CC(C)c1[nH]ncc1-c1ccnc(NCCc2cccnc2)c1 [Example 15]
[out] > 6.30

---

Molecular target: hCDK1/B (Homo sapiens)
Assay: hCDK1/B
Type: biochemical
Conditions: Table 2
# key: entry, value: IC50

Solved cases below.
compound="Cc1n[nH]cc1-c1ccnc(NC2Cc3ccccc3C2)n1 [Example 125]" measured_endpoint=IC50 experimental_result="< 5 µM"
compound="Cc1n[nH]cc1-c1ccnc(NCCCO)n1 [Example 121]" measured_endpoint=IC50 experimental_result="< 15 µM"
compound="CC(C)c1n[nH]cc1-c1ccnc(NCc2ccccc2C(F)(F)F)n1 [Example 154]" measured_endpoint=IC50 experimental_result="< 5 µM"
compound="Cc1n[nH]cc1-c1ccnc(NCC2CCCCCC2)n1 [Example 105]" measured_endpoint=IC50 experimental_result="< 10 µM"

[in] Requested field: IC50. Item: CC(C)c1n[nH]cc1-c1ccnc(NCc2ccccc2OC(F)(F)F)n1 [Example 158]
[out] < 5 µM

---

Molecular target: CDK2 cyA (Homo sapiens, UniProt P24941)
Assay: CDK2 cyA IMAP
Format: biochemical
Settings: Table 2; read-out: CDK2cyA IMAP/ IC50
# key: entry, value: IC50

Solved cases below.
molecule=CC(C)c1n[nH]cc1-c1nc(NC2CCN(C)CC2)ncc1Br assay_target="CDK2 cyA (Homo sapiens, UniProt P24941)" experimental_result="< 5 µM"
molecule=Cc1n[nH]cc1-c1ccnc(NCCCn2ccnc2)n1 assay_target="CDK2 cyA (Homo sapiens, UniProt P24941)" experimental_result="< 10 µM"
molecule=Cc1n[nH]cc1-c1ccnc(NCCc2cccnc2)n1 assay_target="CDK2 cyA (Homo sapiens, UniProt P24941)" experimental_result="< 10 µM"
molecule="Cc1n[nH]cc1-c1ccnc(NCCC2CCCN2C)n1 (stereo not shown)" assay_target="CDK2 cyA (Homo sapiens, UniProt P24941)" experimental_result="≥ 15 µM"
molecule=CC(C)c1n[nH]cc1-c1ccnc(NCCCN(C)c2ccccc2)n1 assay_target="CDK2 cyA (Homo sapiens, UniProt P24941)" experimental_result="< 5 µM"
molecule=Cc1n[nH]cc1-c1ccnc(NCCN2CCCC2)n1 assay_target="CDK2 cyA (Homo sapiens, UniProt P24941)" experimental_result="≥ 15 µM"

[in] Requested field: IC50. Item: CC(C)c1n[nH]cc1-c1ccnc(NCCCNC2CCCCC2)n1
[out] < 10 µM

[in] Requested field: IC50. Item: CC(=O)NCCNc1nccc(-c2c[nH]nc2C)n1
[out] < 15 µM

[in] Requested field: IC50. Item: Cc1[nH]nc(C(C)C)c1-c1ccnc(NC2CCN(C)CC2)n1
[out] ≥ 15 µM

[in] Requested field: IC50. Item: Cc1n[nH]cc1-c1ccnc(NCCCN2CCCC2=O)n1
[out] ≥ 15 µM
